Result Type: melting point

INSERT INTO results (compound, result_type, result) VALUES
  ('COC(=O)c1cc2ccc(C)cc2[nH]1', 'melting point', '131 to 133 °C'),
  ('OCCn1nc(-c2ccccc2)cc1-c1ccccc1', 'melting point', '96 to 98 °C'),
  ('ClCc1cnn(-c2ccccc2)c1', 'melting point', '65 to 69 °C'),
  ('O=C1CN(C(c2ccccc2)c2ccccc2)C1', 'melting point', '78 to 80 °C'),
  ('CCC1CCC2(CC1)NC(=O)N(CC(=O)O)C2=O (configuration not stated)', 'melting point', '214 to 216 °C'),
  ('Nc1cccc(C(=O)N2CCCC(CO)C2)c1 (configuration not stated)', 'melting point', '115 to 117 °C'),
  ('O=Cc1ccc(-c2cccs2)cc1F', 'melting point', '73 to 75 °C'),
  ('N#Cc1cccc(OCCBr)c1', 'melting point', '36 to 38 °C'),
  ('Nc1ccc(Sc2ccccc2Cl)cc1', 'melting point', '77 to 79 °C'),
  ('O=c1c(C(O)(O)C(F)(F)F)coc2ccc(Cl)cc12', 'melting point', '114 to 116 °C'),
  ('CC(C)(C)OC(=O)n1ccc(N)n1', 'melting point', '129 to 131 °C'),
  ('Cc1cc(C)nc(-n2nc(C)c(CC(=O)O)c2C)n1', 'melting point', '249 to 251 °C'),
  ('Cn1cc(C=O)c(-c2ccncc2)n1', 'melting point', '131 to 133 °C'),
  ('COc1ccccc1NCC(=O)NN', 'melting point', '103 to 105 °C'),
  ('Cn1cc(C#N)c(=O)n(C)c1=O', 'melting point', '154 to 156 °C'),
  ('CC(=O)NCCc1ccc(S(N)(=O)=O)s1', 'melting point', '144 to 146 °C'),
  ('Nc1ccc2c(c1)S(=O)(=O)CC2', 'melting point', '197 to 199 °C'),
  ('CCOC(=O)c1nc(-c2ccccc2)oc1CBr', 'melting point', '94 to 96 °C'),
  ('Cn1c(N)c(C(=O)CCl)c(=O)n(C)c1=O', 'melting point', '185 to 187 °C'),
  ('CC(C)(C)OC(=O)N1CCC(N2CCCC2C(=O)O)CC1 (configuration not stated)', 'melting point', '169 to 171 °C'),
  ('Cc1nc2c(Cl)cccc2n1O', 'melting point', '239 to 241 °C'),
  ('CC(C)Oc1ncc(C(=O)O)cc1Cl', 'melting point', '171 to 173 °C');
